Data origin, for the record: ChEMBL document CHEMBL4837204

Assay: Selectivity index, ratio of CC50 cytotoxicity against HEK293T cells to EC50 for antitrypanosomal activity against bloodstream form of wild type Trypanosoma brucei brucei S427 trypomastigotes
Format: toxicity, cell-based
Settings: human; read-out: Ratio CC50/EC50
property: selectivity ratio

testSmiles	property	comparisonSign	dataValue
Cc1cc[n+](CCCCCCCCCCCCCCOc2cc(C)c(C(=O)O)c(O)c2)cc1	selectivity ratio	>	10
COC(=O)c1c(C)cc(OCCCCCCCCCCCCCC[n+]2ccc(/C=C/c3cc4c5c(c3O)CCCN5CCC4)cc2)cc1O	selectivity ratio	=	43.6
Oc1c(/C=C/c2cc[n+](CCCCCCCCCCCCCCBr)cc2)cc2c3c1CCCN3CCC2.[Br-]	selectivity ratio	=	62.6
Cc1cc(O)cc(O)c1C(=O)OCCCCCCCCCCCCCC[n+]1ccc(/C=C/c2cc3c4c(c2O)CCCN4CCC3)cc1.[Br-]	selectivity ratio	>	100

---

Test: Resistance factor, ratio of EC50 for Antitrypanosomal activity against bloodstream form of Trypanosoma brucei brucei AQP1-3 KO trypomastigotes to EC50 for antitrypanosomal activity against bloodstream form of wild type Trypanosoma brucei brucei S427 trypomastigotes
Assay type: functional
Quick reference for Ratio EC50 among some molecules
property: Ratio EC50

molecule	property	dataValue
N=C(N)c1ccc(OCCCCCOc2ccc(C(=N)N)cc2)cc1 [PENTAMIDINE]	Ratio EC50	6.9
Oc1c(/C=C/c2cc[n+](CCCCCCCCCCCCCCBr)cc2)cc2c3c1CCCN3CCC2.[Br-]	Ratio EC50	0.79
Cc1c(Cl)c(O)cc(O)c1C(=O)OCCCCCCCCCCCCCCBr	Ratio EC50	1.91
Cc1cc(O)cc(O)c1C(=O)OCCCCCCCCCCCCCC[n+]1ccc(/C=C/c2cc3c4c(c2O)CCCN4CCC3)cc1.[Br-]	Ratio EC50	1.03
COC(=O)c1c(C)cc(OCCCCCCCCCCCCCC[n+]2ccc(/C=C/c3cc4c5c(c3O)CCCN5CCC4)cc2)cc1O	Ratio EC50	0.81
Cc1cc(O)cc(OCCCCCCCCCCCCCC[n+]2ccc(/C=C/c3cc4c5c(c3O)CCCN5CCC4)cc2)c1.[Br-]	Ratio EC50	0.85
Cc1cc[n+](CCCCCCCCCCCCCCOC(=O)c2c(O)cc(O)c(Cl)c2C)cc1	Ratio EC50	0.8
Cc1cc[n+](CCCCCCCCCCCCCCOc2cc(C)c(C(=O)O)c(O)c2)cc1	Ratio EC50	0.84

---

Experiment: Cytotoxicity against HEK293T cells assessed as reduction in cell viability […] by resazurin dye based fluorescence assay
Design: species or system HEK-293T
Conditions: human
Quick reference for CC50 among some compounds
property: CC50

testSmiles	dataValue
Cc1cc(O)cc(O)c1C(=O)OCCCCCCCCCCCCCC[n+]1ccc(/C=C/c2cc3c4c(c2O)CCCN4CCC3)cc1.[Br-]	> 100 µM
Cc1cc[n+](CCCCCCCCCCCCCCOC(=O)c2c(C)c(Cl)c(O)c(Cl)c2O)cc1	4.4 µM
Cc1cc(O)cc(OCCCCCCCCCCCCCC[n+]2ccc(/C=C/c3cc4c5c(c3O)CCCN5CCC4)cc2)c1.[Br-]	22.2 µM
Cc1cc[n+](CCCCCCCCCCCCCCOc2cc(C)c(C(=O)O)c(O)c2)cc1	> 20 µM
COC(=O)c1c(C)cc(OCCCCCCCCCCCCCC[n+]2ccc(/C=C/c3cc4c5c(c3O)CCCN5CCC4)cc2)cc1O	23.6 µM
